Assay: Concentration required to inhibit PGD-2 induced change in the shape of human eosinophils expressing CRTH2
Provide the reported IC50 of each item.
Could you write the number and then its unit?

Task item: Given the molecule `Cc1c(CC(=O)O)c2cc(F)ccc2n1S(=O)(=O)c1ccc(Cl)cc1` , what is its reported IC50?
Reply: 908 nM

Task item: Given the molecule `Cc1c(CC(=O)O)c2cc(F)ccc2n1S(=O)(=O)c1ccc(S(C)(=O)=O)cc1` , what is its reported IC50?
Reply: 74 nM

All values here come from BindingDB's records for doi:10.1021/jm050519b.
